B1: TPR t1 (parent)
chain: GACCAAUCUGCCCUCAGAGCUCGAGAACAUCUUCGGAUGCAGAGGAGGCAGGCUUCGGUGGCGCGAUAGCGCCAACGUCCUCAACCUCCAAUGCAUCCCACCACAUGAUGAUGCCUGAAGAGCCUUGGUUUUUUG

variants of: B1; assay: polymerase ribozyme fitness, log enrichment relative to wild type (log ratio); higher = more active; in vitro selection for triplet polymerase activity
Response key: true (1) means polymerase ribozyme fitness (log ratio) >= -3; false (0) means polymerase ribozyme fitness (log ratio) < -3.

Prompt line: Form field: polymerase ribozyme fitness (log ratio) at least -3? Entry: G60C A118U
Response line: true (1)

Prompt line: # bool: polymerase ribozyme fitness (log ratio) of A43G C80A C115G >= -3
Response line: false (0)

Prompt line: Hi, just wondering whether G44A G45U G61U A83C shows polymerase ribozyme fitness (log ratio) of -3 or higher.
Response line: true (1)

Prompt line: Is the recorded value of polymerase ribozyme fitness (log ratio) equal to or greater than -3 for this variant? A2U A5C G63C
Response line: false (0)

Prompt line: Tell me whether polymerase ribozyme fitness (log ratio) is at least -3 here: C12A U126C
Response line: true (1)

Prompt line: Check this variant for polymerase ribozyme fitness (log ratio) at or above -3: G117C G128A
Response line: false (0)

Prompt line: I'd appreciate it if you could say whether G61A A121G has polymerase ribozyme fitness (log ratio) at least equal to -3.
Response line: true (1)

Prompt line: Please tell me: is the variant C15U G61U at or over -3 in terms of polymerase ribozyme fitness (log ratio)?
Response line: true (1)

Prompt line: Entry C70A U130G : is its polymerase ribozyme fitness (log ratio) no less than -3?
Response line: true (1)

Prompt line: Record G120U C123A ; criterion: polymerase ribozyme fitness (log ratio) no lower than -3. Met?
Response line: true (1)

Prompt line: Is the recorded value of polymerase ribozyme fitness (log ratio) equal to or greater than -3 for this variant? G51A C86U U87A G113C
Response line: false (0)

Prompt line: Answer whether polymerase ribozyme fitness (log ratio) of G60U A118U is greater than or equal to -3.
Response line: true (1)

Prompt line: Evaluate C13G C104A G110U : polymerase ribozyme fitness (log ratio) at minimum -3?
Response line: false (0)

Prompt line: For this variant, is measured polymerase ribozyme fitness (log ratio) -3 or higher? C8G C13A G52C U92A
Response line: false (0)

Prompt line: Does the variant U59C G93C G113U U133G have recorded polymerase ribozyme fitness (log ratio) that is -3 or more?
Response line: false (0)

Prompt line: Please check the record C62U C70U U133A and state if its polymerase ribozyme fitness (log ratio) is at or above -3.
Response line: true (1)

Prompt line: hey, is polymerase ribozyme fitness (log ratio) for this one >= -3? C56U C70A C115A G122A
Response line: false (0)

Prompt line: Check the entry G36U A90G C97G U106C : does polymerase ribozyme fitness (log ratio) equal or exceed -3?
Response line: true (1)

Prompt line: Check the entry C15A G47U G61U : does polymerase ribozyme fitness (log ratio) equal or exceed -3?
Response line: false (0)

Prompt line: Form field: polymerase ribozyme fitness (log ratio) at least -3? Entry: A37U G44C A100G C104U C115A
Response line: false (0)

Prompt line: Please indicate if the recorded polymerase ribozyme fitness (log ratio) for G10A C73U U78A C79U C94A meets or exceeds -3.
Response line: true (1)

Prompt line: Does G42U G57C C104U U125G have a reported polymerase ribozyme fitness (log ratio) of at least -3?
Response line: true (1)

Prompt line: Item G107A C124A with polymerase ribozyme fitness (log ratio) of -3 or above?
Response line: true (1)

Prompt line: Exam item: decide whether the reported polymerase ribozyme fitness (log ratio) for G35U C53U G69U G110U is at least -3.
Response line: false (0)

Prompt line: State whether the measured polymerase ribozyme fitness (log ratio) reaches -3, counting equality as reaching it, for C73U A75G G77A U109G
Response line: false (0)

Prompt line: Answer whether polymerase ribozyme fitness (log ratio) of C56G C88U C94A G110U is greater than or equal to -3.
Response line: false (0)

Prompt line: // inclusive: polymerase ribozyme fitness (log ratio) at least -3? input: C72U U132C
Response line: true (1)

Prompt line: Entry C102U G117U : is its polymerase ribozyme fitness (log ratio) no less than -3?
Response line: false (0)

Prompt line: Say whether A5U C8G G63U shows polymerase ribozyme fitness (log ratio) of -3 or more.
Response line: true (1)

Prompt line: Record C53G U59G C94G ; criterion: polymerase ribozyme fitness (log ratio) no lower than -3. Met?
Response line: true (1)

Prompt line: Decide: polymerase ribozyme fitness (log ratio) of A18U G48A C49A C85G U133A >= -3?
Response line: false (0)

Prompt line: Does the variant C8U C72U U87C have recorded polymerase ribozyme fitness (log ratio) that is -3 or more?
Response line: true (1)

Prompt line: Given A95G U116A C124U , state whether its polymerase ribozyme fitness (log ratio) is at least -3.
Response line: true (1)

Prompt line: Can C94U U96A be said to have polymerase ribozyme fitness (log ratio) at or above -3?
Response line: true (1)

Prompt line: Is it the case that G42C G120A has polymerase ribozyme fitness (log ratio) reaching or exceeding -3?
Response line: true (1)

Prompt line: Dear colleague, could you confirm whether U9A C86G has polymerase ribozyme fitness (log ratio) at or above -3?
Response line: true (1)

Prompt line: Quick check, polymerase ribozyme fitness (log ratio) >= -3? U9G G36U C70U A74U
Response line: true (1)

Prompt line: polymerase ribozyme fitness (log ratio) >= -3 for A6U C56U C85A ?
Response line: true (1)

Prompt line: Check the entry U21A G45A G58A G60U A100U C101G : does polymerase ribozyme fitness (log ratio) equal or exceed -3?
Response line: true (1)

Prompt line: hey, is polymerase ribozyme fitness (log ratio) for this one >= -3? G60U U112G U116C
Response line: true (1)

Prompt line: Hello, I need to know if G61C U78A G93A U96A has measured polymerase ribozyme fitness (log ratio) not below -3. Thanks!
Response line: true (1)

Prompt line: Does the reported polymerase ribozyme fitness (log ratio) for C72U C102G fall at or above the -3 mark?
Response line: false (0)

Prompt line: Reported polymerase ribozyme fitness (log ratio) at or above -3? A5G C89G
Response line: true (1)

Prompt line: Assess whether reported polymerase ribozyme fitness (log ratio) for C13U C56U G60C C73A sits at -3 or higher.
Response line: true (1)

Prompt line: Quick check: does U14G C70G U116G U125A have polymerase ribozyme fitness (log ratio) greater than or equal to -3?
Response line: false (0)

Prompt line: Can C85U G113A be said to have polymerase ribozyme fitness (log ratio) at or above -3?
Response line: true (1)

Prompt line: Could you verify whether the entry A5G C11A C70G U81C shows polymerase ribozyme fitness (log ratio) of no less than -3?
Response line: false (0)

Prompt line: Is polymerase ribozyme fitness (log ratio) at least -3? Consider A50G C86A C115G
Response line: true (1)

Prompt line: Does the variant U9G G57A U78A A100C have recorded polymerase ribozyme fitness (log ratio) that is -3 or more?
Response line: true (1)

Prompt line: Could you please find out whether G61C C88U has polymerase ribozyme fitness (log ratio) that meets -3 or exceeds it?
Response line: true (1)

Prompt line: Given the entry C86G C102G C115A U133A , answer whether its polymerase ribozyme fitness (log ratio) meets or surpasses -3.
Response line: false (0)

Prompt line: Answer whether polymerase ribozyme fitness (log ratio) of A46C C115G G117A is greater than or equal to -3.
Response line: false (0)

Prompt line: Does polymerase ribozyme fitness (log ratio) meet or surpass -3 for C73U C88U ?
Response line: true (1)

Prompt line: Test whether the variant A6U C11G G69U C76A U125G records polymerase ribozyme fitness (log ratio) of -3 or higher.
Response line: true (1)

Prompt line: Evaluate G48A G52U U55C U125A : polymerase ribozyme fitness (log ratio) at minimum -3?
Response line: true (1)

Prompt line: polymerase ribozyme fitness (log ratio) >= -3 for A46U G61A G110U G120C G122A ?
Response line: false (0)

Prompt line: Could you please find out whether C12U G47A U55A G61U C86U has polymerase ribozyme fitness (log ratio) that meets -3 or exceeds it?
Response line: true (1)

Prompt line: Does polymerase ribozyme fitness (log ratio) meet or surpass -3 for G36U G58C G71C A91U G120U ?
Response line: false (0)

Prompt line: Entry G47U C80A G113A : is its polymerase ribozyme fitness (log ratio) no less than -3?
Response line: false (0)

Prompt line: Decide: polymerase ribozyme fitness (log ratio) of C31A C72A C104G >= -3?
Response line: false (0)

Prompt line: Hi, just wondering whether U59G C73A C88A shows polymerase ribozyme fitness (log ratio) of -3 or higher.
Response line: true (1)

Prompt line: Please tell me: is the variant C12U G17U C28U G39A G42C C56U C70G U106A U109C U112C at or over -3 in terms of polymerase ribozyme fitness (log ratio)?
Response line: false (0)

Prompt line: Decide: polymerase ribozyme fitness (log ratio) of C72U A83C C115G >= -3?
Response line: true (1)

Prompt line: Would you say C64U C72U shows polymerase ribozyme fitness (log ratio) at minimum -3?
Response line: true (1)

Prompt line: In plain terms: is recorded polymerase ribozyme fitness (log ratio) at least -3 for U7G C56A G57U C89A ?
Response line: true (1)

Prompt line: # check: polymerase ribozyme fitness (log ratio) of U9G G48U G61U G135U is greater than or equal to -3
Response line: true (1)

Prompt line: Check the entry A74U A111C : does polymerase ribozyme fitness (log ratio) equal or exceed -3?
Response line: true (1)

Prompt line: Assess whether reported polymerase ribozyme fitness (log ratio) for A2U C89G sits at -3 or higher.
Response line: false (0)

Prompt line: Quick check: does C56U C62G U112G have polymerase ribozyme fitness (log ratio) greater than or equal to -3?
Response line: false (0)

Prompt line: Textbook exercise: given the entry C11A C34G G45A C53U C70G C101A U106A G117C , state whether its polymerase ribozyme fitness (log ratio) is greater than or equal to -3.
Response line: false (0)

Prompt line: Identify whether the reported polymerase ribozyme fitness (log ratio) of the following variant is -3 or greater: C3G U112A C115A
Response line: true (1)

Prompt line: Reported polymerase ribozyme fitness (log ratio) reaches at least -3 for A18U C85U C94G ?
Response line: false (0)

Prompt line: Record U14A C56G ; criterion: polymerase ribozyme fitness (log ratio) no lower than -3. Met?
Response line: false (0)

Prompt line: Answer whether polymerase ribozyme fitness (log ratio) of G45A A111G C114A is greater than or equal to -3.
Response line: false (0)

Prompt line: Please indicate if the recorded polymerase ribozyme fitness (log ratio) for G42U C88G C101A G120C meets or exceeds -3.
Response line: false (0)

Prompt line: Is polymerase ribozyme fitness (log ratio) at least -3? Consider C22U U78A U106G G120C
Response line: false (0)

Prompt line: Can C11A A84U U92C C98U be said to have polymerase ribozyme fitness (log ratio) at or above -3?
Response line: false (0)

Prompt line: In plain terms: is recorded polymerase ribozyme fitness (log ratio) at least -3 for C62A U87A A100C C115A ?
Response line: true (1)

Prompt line: Say whether C13G C56A shows polymerase ribozyme fitness (log ratio) of -3 or more.
Response line: true (1)

Prompt line: Could you please find out whether A2U C72U has polymerase ribozyme fitness (log ratio) that meets -3 or exceeds it?
Response line: true (1)

Prompt line: Textbook exercise: given the entry G52A G135U , state whether its polymerase ribozyme fitness (log ratio) is greater than or equal to -3.
Response line: true (1)

Prompt line: Threshold query (polymerase ribozyme fitness (log ratio) >= -3) on C79U C124A
Response line: true (1)

Prompt line: Record C62U C101G ; criterion: polymerase ribozyme fitness (log ratio) no lower than -3. Met?
Response line: true (1)

Prompt line: Is the recorded value of polymerase ribozyme fitness (log ratio) equal to or greater than -3 for this variant? C3U G48U U54G G120C
Response line: true (1)

Prompt line: Dear colleague, could you confirm whether U14A C70G G77C U112C A119G U131G has polymerase ribozyme fitness (log ratio) at or above -3?
Response line: false (0)

Prompt line: Please tell me: is the variant C13U C73G A83G at or over -3 in terms of polymerase ribozyme fitness (log ratio)?
Response line: true (1)

Prompt line: Evaluate C12G U87A : polymerase ribozyme fitness (log ratio) at minimum -3?
Response line: true (1)

Prompt line: Please indicate if the recorded polymerase ribozyme fitness (log ratio) for A50U meets or exceeds -3.
Response line: true (1)

Prompt line: // inclusive: polymerase ribozyme fitness (log ratio) at least -3? input: U7C G58C A91C
Response line: true (1)
